system: OVCAR-4 ovarian; assay: NCI-60 one-dose screen, 48 h (100 = growth as untreated, 0 = no growth, -100 = all killed); details: 10 µM unless noted
The panel holds about 83,000 compounds, 20% with a hit somewhere; the sample as a whole holds those more often.
EXPERIMENTAL_ENDPOINT: growth (%)
The reply should be a number in %, with the unit left off.

{"COMPOUND": "CCOc1ccc(C(O)CN(C)Cc2ccccc2)cc1Cl (stereo not drawn)", "EXPERIMENTAL_ENDPOINT": "growth", "UNIT_INFO": "%", "READING": 103}
{"COMPOUND": "COc1cc(C2(C#N)CCN(C)CC2)cc(OC)c1OC", "EXPERIMENTAL_ENDPOINT": "growth", "UNIT_INFO": "%", "READING": 104}

Bench note: what growth did CCC[CH2][Sn]([CH2]CCC)([CH2]CCC)[O]C(=O)CC show?
-99.4
